Source: PubChem BioAssay (Tox21)

assayedSystem: Androgen receptor (Homo sapiens)
protocolDetails: qHTS assay to identify small molecule agonists of the androgen receptor (AR) signaling pathway in the presence of an antagonist (AID 1259381); also: nearly all actives have a fitted effect of over 15% in size
protocolConditions: MDA-kb2 MMTV-luciferase, AR agonist + nilutamide, 16 h; series mostly up to 92.4 µM
Active and inactive are the calls of the source. Calls follow the shape of the full dose curve.
Please state which outcome applies, choosing from active, inactive

Previously resolved entries follow.
>>> answerlabel("BrCCCBr")
"inactive"
>>> answerlabel("[O]=[Cr](=[O])([OH])[O][Cr](=[O])(=[O])[OH]")
"inactive"
>>> answerlabel("CCN1CCC2(CC1)COc1cc3c(cc12)N(C(=O)c1ccc(-c2ccc(-c4nnc(C)o4)cc2C)cc1)CC3")
"inactive"
>>> answerlabel("Nc1ccc(Cl)cc1C(=O)c1ccccc1F")
"inactive"
>>> answerlabel("CC#C[C@]1(O)CC[C@H]2[C@@H]3C[C@H](C)C4=CC(=O)CC[C@]4(C)[C@H]3CC[C@@]21C")
"active"
>>> answerlabel("CCOC(=O)Cc1ccccc1")
"inactive"

Status in this test for CCOP(=S)(OCC)SC(CCl)N1C(=O)c2ccccc2C1=O (stereo not given) ?
inactive

GET /call?item= "CCNS(=O)(=O)C(F)(F)C(F)(F)C(F)(F)C(F)(F)C(F)(F)C(F)(F)C(F)(F)C(F)(F)F" returns the recorded outcome of this test.
inactive

Hello, I am checking results. What call was entered for "C=CCOC(=O)c1ccccc1N" ?
inactive

Would you mind telling me which call this test gave "COP(=O)(OC)O/C(=C\Cl)c1cc(Cl)c(Cl)cc1Cl" ?
inactive

----------
protocolDetails: qHTS RealTime-Glo MT Cell Viability Assay in HEK293 cells - 16 hour (AID 1224872); also: nearly all actives have a fitted effect of over 50% in size; also: potency is read from the fitted curve at half-maximal effect
protocolConditions: RealTime-Glo luminescence; series mostly up to 76.8 µM
Records with an inconclusive call do not appear. Calls of active or inactive are those of the source. Calls come from the whole dose curve; as a rule, active = well fitted cell-killing curve with a large enough effect in the repeat runs; inconclusive = weak or mixed curves, or effect the other way; inactive = flat fitted curve, though single readings scatter.
experimentalEndpoint: Potency

>>> result("CCN(CC)CCc1c[nH]c2ccccc12")
"inactive"
>>> result("CCCCCCC[CH2][Sn]([Cl])([Cl])[CH2]CCCCCCC")
"inactive"
>>> result("O=[N+]([O-])c1ccc(Cl)c(Cl)c1Cl")
"inactive"
>>> result("CCOP(=O)(OCC)Oc1nc(Cl)c(Cl)cc1Cl")
"inactive"
>>> result("C1=CCC=C1")
"inactive"
>>> result("CCCCC(CC)COC(=O)OOC(C)(C)C (stereo unspecified)")
"inactive"

GET /values?readout=Potency&item= CC(Cc1ccc(O)cc1)NCC(O)c1cc(O)cc(O)c1 (stereo unspecified)
inactive

What value of Potency has been recorded for this entry: "[O]=[Cr][O][Cr]=[O]"
inactive

Quick one: Potency for "Cc1c([N+](=O)[O-])c(C)c([N+](=O)[O-])c(C(C)(C)C)c1[N+](=O)[O-]" ?
inactive

Return reported Potency; argument: "COc1c2c(cc3c1OCO3)CCN(C)C2"
inactive

Looking for the measured Potency of "CNC(=O)Oc1cc(C)cc(C(C)C)c1" , can you help?
inactive

Which measured Potency value corresponds to "[F][Sn]([c]1ccccc1)([c]1ccccc1)[c]1ccccc1" ?
0.549 µM (active)

Name the reported Potency value associated with the compound "CCOC(=O)CCN(SN(C)C(=O)Oc1cccc2c1OC(C)(C)C2)C(C)C"
inactive

Need Potency of CC(Cc1ccccc1)N(C)Cc1ccco1 (stereo unspecified) , thanks.
inactive

Can you look up the measured Potency of "CCCCN(CCCC)C(=S)[S-].CCCCN(CCCC)C(=S)[S-].[Ni+2]" for me?
inactive

Item "CCCCC/C=C\C/C=C\C/C=C\C/C=C\CCCC(=O)NCC(=O)O" has what recorded Potency?
inactive

Fill in the blank: the reported Potency of CCn1cc[n+](C)c1 (tested in a mixture with another compound) is ____.
inactive

Request the reported Potency associated with "BrCC(Br)(Br)Br"
25.5 µM (active)

Look up Potency for this compound: "N#Cc1sc2c(=O)c3ccccc3c(=O)c=2sc1C#N"
11 µM (active)

Suppose we examine the compound "COc1ccc(Cc2nccc3cc(OC)c(OC)cc23)cc1OC" ; what Potency value has been reported?
4.77 µM (active)
